All values here come from ChEMBL document CHEMBL4673331.

testDescription: Drug concentration in Balb/c mouse blood at 10 mg/kg, po BID by LC-MS/MS analysis
Format: ADME, organism-based
testSettings: in vivo, read-out: Drug uptake
quantityKind: concentration (nM)

[[record]]
chemsmiles = "C[C@H]1COC[C@H](C)N1c1c(NC(=O)Nc2ccnc(C(F)(F)F)c2)cnc2cc(Cl)nn12"
quantitykind = "concentration"
reportedmeasurement = 2600


----------
testDescription: Dose normalized AUC in Sprague-Dawley rat at 1.25 mg/kg, po administered as solution
Type: ADME, organism-based
testSettings: in vivo
quantityKind: AUC/dose (nM·h)

[[record]]
chemsmiles = "COc1ncc(NC(=O)Nc2cnc3ccc(C#N)cc3c2N2CCOC[C@@H]2C)cc1Cl"
quantitykind = "AUC/dose"
reportedmeasurement = 520

